target: CYP3A4 (Homo sapiens); experiment: Two-step luminescent P450 assay with luciferin derivatives, recombinant enzyme panel screen; type: biochemical; design: purchased Discovery Labware (Supersomes™); host or cells: insect cell expression system; conditions: CYP3A4 vs minus P450 control; 50 μM substrate, 1 pmole P450, 30 minutes at 37° C. (FIG. 2)
Sequence (P08684 whole entry): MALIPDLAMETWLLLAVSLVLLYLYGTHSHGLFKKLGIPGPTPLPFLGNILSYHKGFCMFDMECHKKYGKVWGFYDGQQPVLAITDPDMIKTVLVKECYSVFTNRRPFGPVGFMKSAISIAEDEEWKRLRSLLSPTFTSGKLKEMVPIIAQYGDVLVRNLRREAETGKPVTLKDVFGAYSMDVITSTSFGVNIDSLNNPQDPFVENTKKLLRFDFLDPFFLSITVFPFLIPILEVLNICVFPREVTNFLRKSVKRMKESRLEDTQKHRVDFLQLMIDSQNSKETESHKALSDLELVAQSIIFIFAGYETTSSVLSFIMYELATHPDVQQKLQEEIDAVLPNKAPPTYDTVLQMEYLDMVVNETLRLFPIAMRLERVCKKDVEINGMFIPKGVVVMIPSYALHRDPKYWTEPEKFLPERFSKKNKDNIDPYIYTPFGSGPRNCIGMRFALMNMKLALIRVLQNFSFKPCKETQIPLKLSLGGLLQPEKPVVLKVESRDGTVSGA
recordedMetric: signal/background (S/B) ratio

O=C(O)[C@H]1CSC(c2nc3ccc(OC(F)(F)c4c(F)c(F)c(F)c(F)c4F)cc3s2)=N1 [luciferin-PFBE, reference compound]; 92
CC(C)OC(OC(C)C)C1CSC(c2nc3ccc(O)cc3s2)=N1 (stereo not shown); 1699
O=C(O)[C@H]1CSC(c2nc3ccc(OCc4ccccc4)cc3s2)=N1 [luciferin-BE, reference compound]; 55
O=C(O)[C@H]1CSC(c2nc3ccc(OCc4cccc(CN5CCN(c6ccccc6)CC5)c4)cc3s2)=N1 [luciferin-PPXE, reference compound]; 56
